Data origin: paper PMC9775191

# Test system: G. duodenalis BRIS/91/HEPU/1279
# protocol_text: Primary Giardia screen at 10 µM (live-cell imaging, automated counting)
# Assay type: cell-based, Giardia duodenalis
# experimental_context: 48 h, first singlicate assay
quantity_measured: % Inhibition n=1 48h (%)
One number for each entry, in %.

Provide % Inhibition n=1 48h values for the following items, in order.
1. Cc1ccc2nc(-c3ccc(C)c(NC(=O)c4cccnc4)c3)[nH]c2c1
2. Cc1ccc(C(=O)N2CCN(c3nc4ccccc4n4cccc34)CC2)cc1
3. COc1cccc(CNC(=O)Cn2ccc3sccc3c2=O)c1
4. COc1ccccc1CN1CCN(c2cc(C(=O)O)c3cc(NC(C)=O)ccc3n2)CC1
5. Cc1ccc(NS(=O)(=O)c2cn(C)c(C)n2)c(Br)c1
6. CCn1cc(CN(C)C(=O)c2cnn3c(C(F)F)cc(-c4ccc(OC)cc4)nc23)c(C)n1
7. CC(C)c1ccc(-c2noc(N3CCC(C(=O)N4CCN(C5CCCCC5)CC4)CC3)n2)cc1

Result:
1. 8.2
2. 25.5
3. 6.6
4. 39.8
5. 25.8
6. 29.0
7. 11.6

Provide % Inhibition n=1 48h values for the following items, in order.
1. Cc1nc(-c2ccccn2)cc2nn(CC(=O)N3CCC(Cc4ccccc4)CC3)c(=O)n12
2. O=C(c1cccc(N2CCNC(c3ccccc3)C2)n1)N1CCN(c2ccccc2)CC1 (stereo not drawn)

Result:
4.9
13.5

* * *

# System: G. duodenalis BRIS/91/HEPU/1279
# protocol_text: Primary Giardia screen at 10 µM (live-cell imaging, automated counting)
# Format: cell-based, Giardia duodenalis
# experimental_context: 48 h, first singlicate assay
quantity_measured: % Inhibition n=1 48h (%)
One number for each entry, in %.

Check out these entries, answers already filled in.
Cc1oc2ncn(C(C)c3ccccc3)c(=O)c2c1C(=O)Nc1ccc(S(N)(=O)=O)nc1 (stereo not shown) ... 0.0
CNC(=O)Cc1noc(-c2cccc(-n3cccn3)n2)n1 ... 4.9
CCC(C)NC(=O)CC1Sc2ncccc2N(C)C1=O (stereo not shown) ... 11.7

Provide % Inhibition n=1 48h values for the following items, in order.
1. CC(=O)NC1CCCN(C(=O)c2cc3c(C)nn(Cc4ccc(F)cc4)c3s2)C1 (stereo not shown)
2. COCCOCC(C)NC(=O)Cc1csc(N2CCCNC2=O)n1 (stereo not shown)
3. C=CCn1c(SCC(=O)N2CCCCC2)nc2scc(-c3ccco3)c2c1=O

Result:
[0.0, 11.2, 5.6]

Provide % Inhibition n=1 48h values for the following items, in order.
1. Cn1c(C(=O)N2CCN(c3ccccc3)CC2)cc2c1CCN(Cc1ccccc1)C2
2. O=C1CC(C(=O)N2CCN(c3ccccc3)CC2)CN1CCc1ccccc1 (stereo not shown)
3. CCc1nnc(-c2nnc(NCc3ccc4c(c3)OCO4)c3ccccc23)o1

Result:
1. 1.6
2. 6.2
3. 0.0

Provide % Inhibition n=1 48h values for the following items, in order.
1. O=S(=O)(Cc1ccc(C(F)(F)F)cc1)Cc1noc(C2CC2)n1
2. Cc1c(C(=O)N2CCCCC2)c(S(=O)(=O)N2CCN(c3ccccn3)CC2)c(C)n1C
3. CCn1cc(C(=O)NCc2ccccc2)c(=O)c2ccc(C)nc21
4. CCc1nc(-c2ccc3c(c2)CCN3C(=O)CCc2ccc(OC)cc2)no1
5. O=C(NCc1cccc(F)c1)C1CCCN(c2nc3ccccc3n3cccc23)C1 (stereo not shown)
6. COc1ccc(-n2nnnc2C2(N3CCOCC3)CCCCC2)cc1

Result:
[0.0, 0.0, 6.1, 14.1, 0.0, 0.0]

Provide % Inhibition n=1 48h values for the following items, in order.
1. COc1cccc(C2(C)NC(=O)N(Cc3csc(-c4ccccc4)n3)C2=O)c1 (stereo not shown)
2. O=C(Nc1ccccc1)N1CCCC1CN1CCCCC1 (stereo not shown)
3. CC(=O)N1CCC2(CC1)OC(=O)C(C)=C2C(=O)NC1CC1
4. O=C1COc2ccc(Cl)cc2N1Cc1nc(Cn2cnc3ccccc3c2=O)no1

Result:
[0.0, 16.8, 0.0, 0.0]

* * *

# Test system: G. duodenalis BRIS/91/HEPU/1279
# protocol_text: Primary Giardia screen at 10 µM (live-cell imaging, automated counting)
# Type: cell-based, Giardia duodenalis
# experimental_context: 48 h, first singlicate assay
Rule: % Inhibition n=1 48h of 10% or more gives TRUE; anything lower gives FALSE.

Query: Quick check: does CCOc1ccc(-n2c(=O)c3sc4ncccc4c3n(CC(=O)NC3CCCCC3)c2=O)cc1 have % Inhibition n=1 48h greater than or equal to 10%?
Result: TRUE

* * *

# Test system: G. duodenalis BRIS/91/HEPU/1279
# protocol_text: Primary Giardia screen at 10 µM (live-cell imaging, automated counting)
# Assay type: cell-based, Giardia duodenalis
# experimental_context: 48 h, first singlicate assay
Define the label as 1 (yes) when % Inhibition n=1 48h is strictly less than 10% and as 0 (no) in all remaining cases.

CCc1ccc(C(=O)N2CCC(Cc3nc(-c4ccc(OC)cc4)no3)CC2)cc1 [SN00801692] ... 1 (yes)
O=S(=O)(c1ccc(-c2cnc(C3CCC3)o2)s1)N1CCC2(CC1)OCCO2 [SN00795093] ... 1 (yes)
CSc1ccc(Cl)c(C(=O)N2CCCN(C(=O)c3ccncc3)CC2)c1 [SN00771952] ... 0 (no)
Cc1nc(-c2ccccc2)c(C(=O)N2CCCN(S(=O)(=O)c3ccc(F)cc3)CC2)s1 [SN00778504] ... 1 (yes)
Cc1c(C(=O)Nc2cc(-c3ccncc3)n[nH]2)cccc1[N+](=O)[O-] [SN00776775] ... 0 (no)
CCCCn1nnnc1CN1CCCC1Cn1cncn1 (stereo not drawn) [SN00782373] ... 1 (yes)

Query: Lab log: compare recorded % Inhibition n=1 48h with 10%; is it strictly lower for COc1ccc(OC)c(C2C(C(=O)c3ccco3)=C(O)C(=O)N2c2cc(C)on2)c1 (stereo not drawn) [SN00780182] ?
Result: 0 (no)

Query: Lab log: compare recorded % Inhibition n=1 48h with 10%; is it strictly lower for CCc1nnsc1C(=O)N1CCCN(Cc2ccccc2F)CC1 [SN00782451] ?
Result: 1 (yes)

Query: Lab log: compare recorded % Inhibition n=1 48h with 10%; is it strictly lower for COCCn1cc2c3c(cccc31)CN(C(=O)Nc1ccccc1F)CC2 [SN00798581] ?
Result: 0 (no)

* * *

# Tested on: G. duodenalis BRIS/91/HEPU/1279
# protocol_text: Primary Giardia screen at 10 µM (live-cell imaging, automated counting)
# Format: cell-based, Giardia duodenalis
# experimental_context: 48 h, first singlicate assay
Define the label as Criterion met when % Inhibition n=1 48h is strictly less than 8% and as Criterion not met in all remaining cases.

// known answers, use as guide
COc1cccc(-c2noc(Nc3cccc(C)c3)n2)c1 ... Criterion met
COc1ccc(Cn2cccc2C2=NC(C)(C)CO2)cc1 ... Criterion not met

Query: Lab log: compare recorded % Inhibition n=1 48h with 8%; is it strictly lower for CCCN1C(=O)c2cc(C(=O)Nc3ccccc3OC)ccc2C1Nc1ccccc1OC (stereo not shown) ?
Result: Criterion not met

Query: Lab log: compare recorded % Inhibition n=1 48h with 8%; is it strictly lower for Cc1nn(C)c(C)c1CC(C)NC(=O)NCC1CN2CCCC2CO1 (stereo not shown) ?
Result: Criterion not met

Query: Lab log: compare recorded % Inhibition n=1 48h with 8%; is it strictly lower for Cc1ccc(-c2nc(-c3cccc(-c4ccn[nH]4)c3)no2)cc1 ?
Result: Criterion not met

Query: Lab log: compare recorded % Inhibition n=1 48h with 8%; is it strictly lower for Cc1coc(C)c1C(=O)CC1(O)C(=O)Nc2ccccc21 (stereo not shown) ?
Result: Criterion met

Query: Lab log: compare recorded % Inhibition n=1 48h with 8%; is it strictly lower for CNC(=O)Nc1ccc(C2(C(=O)Nc3ccc(F)c(C)c3)CCC2)cc1 ?
Result: Criterion met

Query: Lab log: compare recorded % Inhibition n=1 48h with 8%; is it strictly lower for CN1C(=O)c2cc(C(=O)NCCCc3ccccc3)nn2CC1(C)C(=O)NC1CCCC1 (stereo not shown) ?
Result: Criterion met

Query: Lab log: compare recorded % Inhibition n=1 48h with 8%; is it strictly lower for O=C(NCC1CN2CCCC2CO1)c1ccccc1-n1cnnn1 (stereo not shown) ?
Result: Criterion met

Query: Lab log: compare recorded % Inhibition n=1 48h with 8%; is it strictly lower for COCCc1ccc(Oc2nnnn2-c2ccccc2)cc1 ?
Result: Criterion not met

Query: Lab log: compare recorded % Inhibition n=1 48h with 8%; is it strictly lower for Cc1ccc(-c2nc3ccccc3n2Cc2cccc(F)c2)o1 ?
Result: Criterion not met

Query: Lab log: compare recorded % Inhibition n=1 48h with 8%; is it strictly lower for O=C(NCc1cccc(C(F)(F)F)c1)C1CCCN(c2nccnc2Oc2ccccc2)C1 (stereo not shown) ?
Result: Criterion not met

Query: Lab log: compare recorded % Inhibition n=1 48h with 8%; is it strictly lower for CCCNC(=O)CCNC(=O)N1CCCC1c1nc2cc(C)ccc2[nH]1 (stereo not shown) ?
Result: Criterion not met

Query: Lab log: compare recorded % Inhibition n=1 48h with 8%; is it strictly lower for Cc1cc2nc(Sc3nnnn3CC3CCCO3)c3ccccc3n2n1 (stereo not shown) ?
Result: Criterion not met

Query: Lab log: compare recorded % Inhibition n=1 48h with 8%; is it strictly lower for Cc1ccc(-n2nc(C)c3sc(N4CCCN(C(=O)c5ccc6c(c5)OCO6)CC4)nc32)cc1 ?
Result: Criterion met

Query: Lab log: compare recorded % Inhibition n=1 48h with 8%; is it strictly lower for COC(=O)c1cc(C(=O)Nc2c3c(nn2C)CCC3)cc([N+](=O)[O-])c1 ?
Result: Criterion not met
